# TARGET_OR_SYSTEM: UniProt Q8ILY1
# ASSAY_TEXT: Fluorescence-based high-throughput DNA polymerase assay (molecular beacon), primary screen and dose-response
# Format: biochemical
# PROTOCOL_CONDITIONS: DRC-2; 40'; conc 20
Assign 1 (yes) whenever % inhibition Apol 40' does not fall below 60%; assign 0 (no) whenever it does.

Sample answers from the record:
[[record]]
molecule = "Cc1ccc(CNC(=O)c2cnn3c(O)cc(CSc4ccc(Cl)cc4)nc23)cc1"
target_or_system = "UniProt Q8ILY1"
group = "1 (yes)"

[[record]]
molecule = "Cc1cc(C)c2c(c1)C1C=CCC1C(c1ccc(C(=O)O)cc1)N2 (stereo not drawn)"
target_or_system = "UniProt Q8ILY1"
group = "1 (yes)"

[[record]]
molecule = "N#CC(C#N)=C1SCN(c2cccc(Cl)c2)CS1"
target_or_system = "UniProt Q8ILY1"
group = "1 (yes)"

[[record]]
molecule = "Cc1ccccc1NC(=O)Cn1ccc2c(=O)[nH]ccc21 [Molecule 50, O=C(Cn1ccc2c1cc[nH]c2=O)Nc1ccc(cc1)C]"
target_or_system = "UniProt Q8ILY1"
group = "1 (yes)"


Ask: State whether the measured % inhibition Apol 40' reaches 60%, counting equality as reaching it, for O=C1Nc2ccc(I)cc2C1=Cc1cc(Br)c(O)c(Br)c1
Result: 1 (yes)

Ask: Cc1ccc(NC(=O)Cn2ccc3c(=O)[nH]ccc32)c(C)c1 , same question.
Result: 0 (no)

Ask: O=C1NN(c2ccc(Cl)c(Cl)c2)C(=O)/C1=C/c1ccc(-c2ccc3c(c2)C(=O)OC3)o1 , same question.
Result: 0 (no)

Ask: Cc1ccc(N2NC(=O)/C(=C\c3ccc(O)c([N+](=O)[O-])c3)C2=O)cc1Cl , same question.
Result: 0 (no)

Ask: Cc1cccc(C2=N/C(=C\c3ccc([N+](=O)[O-])o3)C(=O)O2)c1 , same question.
Result: 0 (no)

Ask: CC(C)CCNC(=O)c1cnn2c(O)cc(CSc3ccc(Cl)cc3)nc12 , same question.
Result: 1 (yes)

Ask: C=CCOc1c(Br)cc(Br)cc1/C=C1\SC(=N)NC1=O , same question.
Result: 0 (no)

----------
# TARGET_OR_SYSTEM: P. falciparum apicoplast DNA polymerase (Pf-apPOL) (Plasmodium falciparum, UniProt Q8ILY1)
# Sequence (Q8ILY1 entry or part of it): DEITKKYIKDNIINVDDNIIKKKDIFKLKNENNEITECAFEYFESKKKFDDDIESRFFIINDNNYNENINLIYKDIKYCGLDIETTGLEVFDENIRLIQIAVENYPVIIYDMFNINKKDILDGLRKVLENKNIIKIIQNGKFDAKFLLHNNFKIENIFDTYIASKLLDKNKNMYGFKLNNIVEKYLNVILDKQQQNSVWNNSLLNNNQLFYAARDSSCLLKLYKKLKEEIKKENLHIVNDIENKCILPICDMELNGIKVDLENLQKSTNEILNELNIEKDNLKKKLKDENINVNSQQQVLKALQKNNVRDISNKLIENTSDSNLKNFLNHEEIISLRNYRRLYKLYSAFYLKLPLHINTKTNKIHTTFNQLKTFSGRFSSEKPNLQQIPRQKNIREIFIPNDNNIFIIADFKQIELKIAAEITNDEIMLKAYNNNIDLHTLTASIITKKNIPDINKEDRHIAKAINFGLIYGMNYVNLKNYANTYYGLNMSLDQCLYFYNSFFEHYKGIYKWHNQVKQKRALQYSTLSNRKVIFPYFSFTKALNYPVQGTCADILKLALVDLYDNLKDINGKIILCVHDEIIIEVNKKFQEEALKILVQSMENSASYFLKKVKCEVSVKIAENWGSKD
# ASSAY_TEXT: Fluorescence-based high-throughput DNA polymerase assay (molecular beacon), primary screen and dose-response;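 also: compound concentration given in µM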
# Type: biochemical
# PROTOCOL_CONDITIONS: DRC-2, 40', concentration 5
So I've got a bunch of molecules here, and I need their % inhibition Apol 40' values.
Numbers only, in %.

Solved entries:
[[record]]
molecule = "Cc1ncc(CSc2nc(C(C)(C)C)cs2)c(CO)c1O"
target_or_system = "P. falciparum apicoplast DNA polymerase (Pf-apPOL) (Plasmodium falciparum, UniProt Q8ILY1)"
number = 6.47

[[record]]
molecule = "CCSc1nnc(NC(=O)Cc2csc(NC(=O)c3cnccn3)n2)s1"
target_or_system = "P. falciparum apicoplast DNA polymerase (Pf-apPOL) (Plasmodium falciparum, UniProt Q8ILY1)"
number = 7

[[record]]
molecule = "CS(=O)(=O)c1cccc(C(=O)Nc2nnc(-c3ccno3)o2)c1"
target_or_system = "P. falciparum apicoplast DNA polymerase (Pf-apPOL) (Plasmodium falciparum, UniProt Q8ILY1)"
number = 4.6


Kindly consider the entry below.
Ask: Fill in the blank: the reported % inhibition Apol 40' of CCOc1ccccc1-c1nc(-c2ccc(=O)[nH]c2)no1 [Molecule 76, CCOc1ccccc1c1onc(n1)c1ccc(=O)[nH]c1] is ____.
Result: 6.65
